- test description: Selectivity ratio of EC50 for human MOLT4 cells to EC50 for bloodstream form of Trypanosoma brucei brucei Lister 427 90-13
- Type: ADME, cell-based, MOLT-4
- measurement conditions: read-out: Ratio EC50
value type: selectivity ratio
Answer with a number only.

# input Tell me measured selectivity ratio for CO[C@@H](C(=O)N1Cc2n[nH]c(NC(=O)c3ccc(N4CCN(C)CC4)cc3)c2C1)c1ccccc1 please.
# output 0.25

# input Tell me measured selectivity ratio for CN1CCN(c2ccc(C(=O)Nc3n[nH]c4c3CN(C(=O)Nc3ccccc3)C4)cc2)CC1 please.
# output 0.58

# input Tell me measured selectivity ratio for CCc1cccc(CC)c1NC(=O)N1Cc2n[nH]c(NC(=O)c3ccc(N4CCN(C)CC4)cc3)c2C1 please.
# output 0.06

# input Tell me measured selectivity ratio for Cc1ccc(S(=O)(=O)N2Cc3[nH]nc(NC(=O)c4ccc(N5CCN(C)CC5)cc4)c3C2)cc1 please.
# output 0.16

# input Tell me measured selectivity ratio for CN1CCN(c2ccc(C(=O)Nc3n[nH]c4c3CN(C(=O)c3ccccc3)C4)cc2)CC1 please.
# output 0.05
